The values you see were collected from patent EP2706123A1.

- Test system: Anks4b
- RUN DESCRIPTION: Expression level of marker gene Anks4b in liver of mice exposed for 7 days (microarray)
- CONDITIONS USED: mouse liver, 7 days exposure, average of 3 - 4 independent repeat experiments; negative value = underexpression (negative inverse of Ratio); dose and route per compound in Table 8
Would you mind telling me the reported Average Fold Changes of the expression level of marker gene Anks4b of each entry?

# COMPOUND, VAL
records = [
    ("CCCCC(CC)COC(=O)c1ccccc1C(=O)OCC(CC)CCCC (centres unmarked) [NGTXC_DEHP, Di(2-ethylhexyl)phthalate]", "-1,13"),
    ("c1ccc2c(c1)cc1ccc3cccc4ccc2c1c34", "1,58"),
    ("N.N.[Cl][Pt][Cl] [GTXC_CPPD, Cisplatin]", "1,62"),
    ("CC(=O)Nc1ccc2c(c1)Cc1ccccc1-2", "1,87"),
    ("CCC1(c2ccccc2)C(=O)NC(=O)NC1=O", "1,47"),
    ("CC/C(=C(/CC)c1ccc(O)cc1)c1ccc(O)cc1", "-1,02"),
    ("CC(C)(c1ccc(O)cc1)c1ccc(O)cc1", "-1,02"),
]

Now let's try a different one.
Query: Average Fold Changes of the expression level of marker gene Anks4b; subject: CC(C)CCCCCCCOC(=O)c1ccccc1C(=O)OCCCCCCCC(C)C [NC_DIDP, Diisodecyl phthalate] 1,17

* * *

- System: Cyp17a1
- RUN DESCRIPTION: Expression level of marker gene Cyp17a1 in liver of mice exposed for 7 days (microarray)
- CONDITIONS USED: mouse liver, 7 days exposure, average of 3 - 4 independent repeat experiments; negative value = underexpression (negative inverse of Ratio); dose and route per compound in Table 8
QUANTITY NAME: Average Fold Changes of the expression level of marker gene Cyp17a1

# COMPOUND, VAL
data = [
    ("N.N.[Cl][Pt][Cl] [GTXC_CPPD, Cisplatin]", "-2,48"),
    ("CCCCC(CC)COC(=O)c1ccccc1C(=O)OCC(CC)CCCC (centres unmarked) [NGTXC_DEHP, Di(2-ethylhexyl)phthalate]", "2,49"),
]

State recorded Average Fold Changes of the expression level of marker gene Cyp17a1 for all listed compounds.
1. CC(=O)Nc1ccc2c(c1)Cc1ccccc1-2
2. CC(C)CCCCCCCOC(=O)c1ccccc1C(=O)OCCCCCCCC(C)C [NC_DIDP, Diisodecyl phthalate]

-1,62
-1,22

# value lookup — system Cyp17a1, readout Average Fold Changes of the expression level of marker gene Cyp17a1, item CC/C(=C(/CC)c1ccc(O)cc1)c1ccc(O)cc1 10,74
